Examples of compounds with documented pIC50 follow.
# Test system: CEM cells HIV-1 protection, formazan growth assay
# assay_comment: NCI AIDS Antiviral Assay
# applied_conditions: measured here: growth of uninfected CEM cells
pIC50: −log10 of the molar value.

These solved cases illustrate the format of a correct answer.
CC1(C)CC2=C(SC3C=CC=CC3N2)C(=O)C1C(=O)C(N)=O (stereo not drawn) ... < 4.23
CC(CO)CS(=O)(=O)O (stereo not drawn) ... < 3.70

# lookup: CC1CC(Nc2ccc(NC3=CC(=O)OC(C)C3)cc2)=CC(=O)O1 (stereo not drawn) on CEM cells HIV-1 protection, formazan growth assay, pIC50 = < 3.70

====

Listed molecules paired with reported pIC50
# System: CEM cells HIV-1 protection, formazan growth assay
# assay_comment: NCI AIDS Antiviral Assay
# applied_conditions: measured here: growth of uninfected CEM cells
In textbook form, pIC50 equals minus log to base ten of the concentration in mol/L.

Here is how some molecules turned out for pIC50.
CC(NC(CC12CC3CC(CC(C3)C1)C2)C(N)=O)c1ccccc1 (configuration not stated) ... 4.46
COc1ccc(OC)c2c1C=C[C@H](C1(C)SCCS1)C2C(C)=O (some centres not stated) ... 5.05
N#Cc1c(-c2ccccc2)ssc1=S ... 4.85
N#CC[P+](c1ccccc1)(c1ccccc1)c1ccccc1 ... 3.85
COc1cc(C(=O)NO)ccc1O ... 3.35

Summary line: Nc1c(Br)cc(-c2cc(Br)c(N)c(Br)c2)cc1Br , CEM cells HIV-1 protection, formazan growth assay, reported pIC50 = 3.86

Value (pIC50, CEM cells HIV-1 protection, formazan growth assay) for record CCCCCCCCCCCCCCCCOC1N(C2CC(N=[N+]=[N-])C(CO)O2)C(=O)NC(=O)[C@]1(C)Cl (some centres not stated) = 4.50

Field pIC50 (system: CEM cells HIV-1 protection, formazan growth assay) for entry Cc1[nH]c(=S)[nH]c(=O)c1CCl = 3.97

# COc1ccc(-c2c3c(n(C4OC(COC(C)=O)C(OC(C)=O)C(OC(C)=O)C4OC(C)=O)c(=S)c2C#N)CCCC3)cc1 (configuration not stated) with CEM cells HIV-1 protection, formazan growth assay: pIC50 is 4.05

The reported CEM cells HIV-1 protection, formazan growth assay pIC50 of CCOC(=O)CCC(NC(=O)c1ccc(Nc2cnc3ccc(C(F)(F)F)cc3n2)cc1)C(=O)OCC (configuration not stated) is 4.73

Short answer on CEM cells HIV-1 protection, formazan growth assay for Cc1ccc2c(c1)-c1nc(N)c(C#N)c(-c3ccc(Cl)cc3)c1CCS2(=O)=O , pIC50: 4.53

COC(=O)CC[N+]1=CCC(c2ccccc2)(c2ccccc2)O1 on CEM cells HIV-1 protection, formazan growth assay gives pIC50 = 4.16

====

// reported log10(IC50) for each item listed
# Test system: CEM cells HIV-1 protection, formazan growth assay
# assay_comment: NCI AIDS Antiviral Assay
# applied_conditions: measured here: growth of uninfected CEM cells
// do not treat as linear: log10 of IC50, unit µM

// below: answered molecules
CCOC(=O)c1cc(-c2cc(OC)c(OC)c([N+](=O)[O-])c2)c([N+](=O)[O-])n1C ... 1.01
COC(=O)c1ccccc1CC1Cc2cc3c(cc2C1=O)CCC3 (centres undefined) ... 0.88
COc1ccc(NC(=S)NNC(=O)c2cc(-c3ccccc3)nc3ccccc23)cc1 ... 1.55
O=C1C2=Nc3ccccc3C(O)(C(=O)O)N2c2ccccc21 (centres undefined) ... 1.22

For CC(=O)OC1(C#N)CC2OC1C1C2N=NN1C(=O)OC(C)(C)C (centres undefined) the molecule record lists log10(IC50) as 1.46

Form: molecule = C[C@@H](O)[C@H]1/C=C/C=C\C(=O)O[C@@H]2C[C@H]3O[C@@H]4[C@@H]5OC5(C)CCC4(COC(=O)[C@H]4O[C@]4(C)[C@@H](O)CO1)[C@]2(C)[C@]31CO1 (some centres undefined) ; log10(IC50) = -1.20
